// data source = paper PMC12055641

System: S. aureus ATCC 6538
experimental.parameters: ATCC 6538, reference strain
No end group written: not given here.
For each record, write down the corresponding MIC.
Give your result in µg/mL as a bare value.

Please fill in: MIC reported for ILRWPWWPWRRK-NH2 [Omiganan Cl^−] = 8

Please fill in: MIC reported for KRRWPWWPWRLI-NH2 [Retro-omiganan TFA^−] = 8

Please fill in: MIC reported for ILRWPWWPWRRK-NH2 [Omiganan AcO^−] = 8

Please fill in: MIC reported for ILRWPWWPWRRK-NH2 [Omiganan TFA^−] = 4

====

Test system: S. aureus clinical strain 009S biofilm
No end group written: not given here.
metric: MBEC

Please fill in: MBEC reported for ILRWPWWPWRRK-NH2 [Omiganan TFA^−] = 32 µg/mL

Please fill in: MBEC reported for ILRWPWWPWRRK-NH2 [Omiganan Cl^−] = 32 µg/mL

Please fill in: MBEC reported for ILRWPWWPWRRK-NH2 [Omiganan AcO^−] = 16 µg/mL

Please fill in: MBEC reported for KRRWPWWPWRLI-NH2 [Retro-omiganan TFA^−] = 16 µg/mL
